molecular target: H1 (A/Cali/09/2007); experiment: ELISA
testReadout: EC50 (nM)
Field format: number, assumed nM, no unit text.

Indicate the recorded EC50 value for this binder: VH 3 / VL 3 (antibody, V domains shown) VH: QVQLVESGGGVVQPGRSLRLSCAASGFTFSTYAMHWVRQAPGKGLEWVAVISYDANYKYYADSVKGRFTISRDNSKNTLYLQMNSLRAEDTAVYYCAKDSQLRSLLYFEWLSQGYFDYWGQGTLVTVSS VL: DIQMTQSPSSLSASVGDRVTITCRSSQSITFDYKNYLAWYQQKPGKAPKLLIYAASSLQSGVPSRFSGSGSGTDFTLTISSLQPEDFATYYCQQHYRTPPSFGQGTKVEIK 0.0246

Give me measured EC50, please, for this binder: VH 3 / VL 2 (antibody, V domains shown) VH: QVQLVESGGGVVQPGRSLRLSCAASGFTFSTYAMHWVRQAPGKGLEWVAVISYDANYKYYADSVKGRFTISRDNSKNTLYLQMNSLRAEDTAVYYCAKDSQLRSLLYFEWLSQGYFDYWGQGTLVTVSS VL: DIQMTQSPSSLSASVGDRVTITCRSSQSITFDYKNYLAWYQQKPGKAPKLLIYWGSSLQSGVPSRFSGSGSGTDFTLTISSLQPEDFATYYCQQHYRTPPSFGQGTKVEIK 0.019

// Input: VH 11 / VL 4 (antibody, V domains shown) VH: QVQLVQSGAEVKKPGASVKVSCKASGFTFSTYAINWVRQATGQGLEWMGWISYDANYKYYAQKFQGRVTMTRDTSISTAYMELSSLRSEDTAVYYCAKDSQLRSLLYFEWLSQGYFDYWGQGTTLTVSS VL: DIVMTQSPDSLAVSLGERATINCKSSQSVTFDYKNYLAWYQQKPGQPPKLLIYWASTRESGVPDRFSGSGSGTDFTLTISSLQAEDVAVYYCQQHYRTPPSFGQGTKVEIK . Output its EC50 only. 0.0244

The reported numbers originate from patent US20230257449A1.
